Biological target: rat CYP2C12, Cyp2c12 (gene 25011)
Assay: NVS_ADME_rCYP2C12: NovaScreen (NVS) CYP450-related Enzyme Activity (ADME) Assay for rat CYP2C12 (AID 2283119)
Procedure: NVS_ADME_rCYP2C12 is a biochemical, single-readout assay that uses extracted gene-proteins in a cell-free assay. Measurements were taken 0.5 hour after chemical dosing in a 96-well plate.NVS_ADME_rCYP2C12 is one of one assay component(s) measured or calculated from the NVS_ADME_rCYP2C12 assay. […] This assay endpoint, NVS_ADME_rCYP2C12, was analyzed in the positive analysis fitting direction relative to Acetonitrile as the negative control and baseline of activity. […]
Results filed as inconclusive are left out. The source made the active and inactive calls. Rule for the calls: active = hit-call score of the fitted dose curve at least 0.9, where 1 is the maximum; inconclusive = response in the unintended direction; inactive = score below 0.9.
Permitted responses: 1 (yes) (active), 0 (no) (inactive)

compound=COc1ccc(C(c2ccc(OC)cc2)C(Cl)(Cl)Cl)cc1 class="0 (no)"

Data request: // param item: N#CC(CCc1ccc(Cl)cc1)(Cn1cncn1)c1ccccc1 (stereo not given) ; yields the recorded call
Data returned: 1 (yes)

Data request: // outcome(item) with item = CCOP(=S)(OCC)SCn1c(=O)oc2cc(Cl)ccc21
Data returned: 1 (yes)

Data request: Check the results log: what was the call for CN(C)C(=S)SSC(=S)N(C)C ?
Data returned: 1 (yes)

Data request: Which outcome did this test record for the compound CCOC(=O)CC(SP(=S)(OC)OC)C(=O)OCC (stereo not given) ?
Data returned: 1 (yes)

* * *

target: Luciferin 4-monooxygenase (Photinus pyralis); assay: CCTE_Simmons_QuantiLum_inhib_2: CCTE's Firefly Luciferase Inhibition Assay, Simmons Lab (AID 2283767)
Results filed as inconclusive are left out. Activity calls are given as the source filed them. The calls were made as follows: active = hit-call score of the fitted dose curve at least 0.9, where 1 is the maximum; inconclusive = response in the unintended direction; inactive = score below 0.9.
Allowed answers: class 1 (active), class 0 (inactive)

molecule="CCOC(=O)CC(SP(=S)(OC)OC)C(=O)OCC (centres undefined)" class="class 0"
molecule="CCCC1COC(Cn2cncn2)(c2ccc(Cl)cc2Cl)O1 (centres undefined)" class="class 1"
molecule=CON(C)C(=O)Nc1ccc(Cl)c(Cl)c1 class="class 0"

Data request: Write down the call the test reported for this molecule. Item: CC1=C(C(=O)Nc2ccccc2)SCCO1
Data returned: class 0

Data request: What call does the record list for CCCN(CCC)c1c([N+](=O)[O-])cc(S(N)(=O)=O)cc1[N+](=O)[O-] ?
Data returned: class 0

* * *

experiment: Tanguay_ZF_120hpf_TR_legacy: (Legacy) Oregon State University Tanguay Lab 120 Hour Post-fertilization zebrafish Assay for Touch Response (AID 2283667)
Inconclusive results are not listed. Activity calls are given as the source filed them. How the source made its calls: active means hit-call score of the fitted dose curve at least 0.9, where 1 is the maximum; inconclusive means response in the unintended direction; inactive means score below 0.9.
Your response should consist of one outcome taken from T = active, F = inactive

compound="N#Cc1nn(-c2c(Cl)cc(C(F)(F)F)cc2Cl)c(N)c1S(=O)C(F)(F)F (stereo not given)" class=F
compound=COc1nc(NC(C)C)nc(NC(C)C)n1 class=F
compound="C=CC1(C)OC(=O)N(c2cc(Cl)cc(Cl)c2)C1=O (stereo not given)" class=F

Data request: State the result this test recorded for CCOC(=O)CC(SP(=S)(OC)OC)C(=O)OCC (stereo not given) .
Data returned: T

Data request: In this assay, the call recorded for CON(C)C(=O)Nc1ccc(Cl)c(Cl)c1 was what?
Data returned: F

Data request: Would you mind telling me which call this test gave COC(=O)C=C(C)OP(=O)(OC)OC ?
Data returned: F

Data request: What is the recorded call for this compound in the test? Fc1ccc(Oc2ccnc3cc(Cl)cc(Cl)c23)cc1
Data returned: F

Data request: Answer briefly: the call reported for CCCCC(CC)COC(=O)c1ccccc1C(=O)OCC(CC)CCCC (stereo not given) in this assay.
Data returned: F

Data request: What did this assay record as the result for CC(C)(C)c1ccc(CSc2cnn(C(C)(C)C)c(=O)c2Cl)cc1 ?
Data returned: F

* * *

read-out: Apolipoprotein A-V (APOA5) gene, APOA5 (gene 116519); experiment: LTEA_HepaRG_APOA5: Life Technologies and Expression Analysis (LTEA) Assay for Apolipoprotein A-V (APOA5) gene using HepaRG (AID 2283474); conditions: mRNA level, 48 h; actives raise or lower the signal
Activity calls are given as the source filed them. How the source made its calls: active means hit-call score of the fitted dose curve at least 0.9, where 1 is the maximum; inactive means score below 0.9.
readout kind: AC50

Some solved entries appear below for comparison.
molecule=O=C(Nc1ccccc1)Nc1ccnc(Cl)c1 readout_kind=AC50 experimental_value="71.9 µM (active)"
molecule="CC(C)C1(C)N=C(c2nc3ccccc3cc2C(=O)O)NC1=O (stereo not drawn)" readout_kind=AC50 experimental_value=inactive
molecule="C=CC1(C)OC(=O)N(c2cc(Cl)cc(Cl)c2)C1=O (stereo not drawn)" readout_kind=AC50 experimental_value=inactive
molecule=CC(C)(C)c1ccc(CSc2cnn(C(C)(C)C)c(=O)c2Cl)cc1 readout_kind=AC50 experimental_value="12 µM (active)"
molecule=COc1nc(NC(C)C)nc(NC(C)C)n1 readout_kind=AC50 experimental_value=inactive
molecule=CCNc1nc(Cl)nc(NCC)n1 readout_kind=AC50 experimental_value=inactive
molecule=Cc1cc(Cl)ccc1OCC(=O)O readout_kind=AC50 experimental_value=inactive
molecule=CCCCOC(=O)c1ccccc1C(=O)OCCCC readout_kind=AC50 experimental_value=inactive
molecule="COP(N)(=O)SC (stereo not drawn)" readout_kind=AC50 experimental_value=inactive
molecule="N#Cc1nn(-c2c(Cl)cc(C(F)(F)F)cc2Cl)c(N)c1S(=O)C(F)(F)F (stereo not drawn)" readout_kind=AC50 experimental_value="54.4 µM (active)"

Data request: For the molecule CC(Oc1ccc(Cl)cc1Cl)C(=O)O (stereo not drawn) , give its reported AC50.
Data returned: inactive

Data request: For the molecule COP(=S)(OC)Oc1nc(Cl)c(Cl)cc1Cl , report AC50.
Data returned: inactive

Data request: Give AC50 for CCON=C(CC)C1=C(O)CC(c2c(C)cc(C)cc2C)CC1=O (stereo not drawn)
Data returned: inactive

* * *

target: human Caspase 5 (CASP5), CASP5 (gene 838); assay: NVS_ENZ_hCASP5: NovaScreen (NVS) Enzymatic Assay for human Caspase 5 (CASP5) (AID 2283137)
Results filed as inconclusive are left out. Active and inactive are the calls of the source. The calls were made as follows: active = hit-call score of the fitted dose curve at least 0.9, where 1 is the maximum; inconclusive = response in the unintended direction; inactive = score below 0.9.
Thanks in advance; please answer with one of these: active, inactive

Here are 2 compounds together with their reported answers.
compound="CCCC1COC(Cn2cncn2)(c2ccc(Cl)cc2Cl)O1 (stereo unspecified)" class=inactive
compound=COc1ccc(C(c2ccc(OC)cc2)C(Cl)(Cl)Cl)cc1 class=active

Consider the record given below.
Data request: Dear colleague, could you share the recorded outcome for COc1nc(NC(C)C)nc(NC(C)C)n1 when you have a moment?
Data returned: inactive

* * *

read-out: Monocyte Chemoattractant Protein-1 (MCP1), CCL2 (gene 6347); assay: BSK_3C_MCP1: BioMAP Diversity Plus: 3C Assay for Monocyte Chemoattractant Protein-1 (MCP1) Biomarker Activity (AID 2283017); conditions: primary human endothelial cells (HUVEC); actives raise or lower the signal
Activity calls are given as the source filed them. The calls were made as follows: active = hit-call score of the fitted dose curve at least 0.9, where 1 is the maximum; inactive = score below 0.9.
Hi there, use one of these labels in your reply, thanks! active, inactive

Here are 3 compounds together with their reported answers.
compound=CCCN(CCC)c1c([N+](=O)[O-])cc(S(N)(=O)=O)cc1[N+](=O)[O-] class=active
compound=CNC(=S)S class=inactive
compound=Cc1cc(Cl)ccc1OCC(=O)O class=inactive

Lab note: next compound to report on.
Data request: Assay outcome for O=C(Nc1ccccc1)Nc1ccnc(Cl)c1 : what was it?
Data returned: active

* * *

Read-out: Urokinase-type plasminogen activator receptor (uPAR), PLAUR (gene 5329)
Assay: BSK_4H_uPAR: BioMAP Diversity Plus: 4H Assay for Urokinase-type plasminogen activator receptor (uPAR) Biomarker Activity (AID 2283030)
Conditions: primary human endothelial cells (HUVEC); actives raise or lower the signal
Experimental: BSK_4H is a cell-based, multiplexed-readout assay that uses umbilical vein endothelium, a human vascular primary cell, with measurements taken at 24 hours after chemical dosing in a 96-well plate.BSK_4HAR is an assay component measured in the BSK_4H assay. It measures uPAR antibody related to regulation of gene expression using ELISA technology.Data from the assay component BSK_4HAR was analyzed into 1 assay endpoint. […]
Activity calls are given as the source filed them. Rule for the calls: active = hit-call score of the fitted dose curve at least 0.9, where 1 is the maximum; inactive = score below 0.9.
readout kind: AC50

Look over these answered cases.
compound="CCON=C(CC)C1=C(O)CC(c2c(C)cc(C)cc2C)CC1=O (configuration not stated)" experimental_value=inactive
compound=Fc1ccc(Oc2ccnc3cc(Cl)cc(Cl)c23)cc1 experimental_value="32.1 µM (active)"
compound=COC(=O)C=C(C)OP(=O)(OC)OC experimental_value=inactive
compound="N#CC(CCc1ccc(Cl)cc1)(Cn1cncn1)c1ccccc1 (configuration not stated)" experimental_value=inactive
compound=CN(C)C(=S)SSC(=S)N(C)C experimental_value="26.3 µM (active)"
compound=Cc1cc(Cl)ccc1OCC(=O)O experimental_value=inactive

Then there is this compound:
Data request: Supply measured AC50 of COP(N)(=O)SC (configuration not stated) in your reply.
Data returned: inactive

* * *

Read-out: Paternally Expressed 10 (PEG10), PEG10 (gene 23089)
Test: LTEA_HepaRG_PEG10: Life Technologies and Expression Analysis (LTEA) Assay for Paternally Expressed 10 (PEG10) using HepaRG (AID 2283520)
Settings: mRNA level, 48 h; actives raise or lower the signal
Procedure: LTEA_HepaRG is a cell based, multiplexed-readout assay that uses HepaRG, a human liver cell line, with measurements taken at 48 hours after chemical dosing on a 96-well plate.LTEA_HepaRG_PEG10 is one of 102 assay component(s) measured in the LTEA HepaRG cell culture assay. It is a marker of Cell proliferation, survival, death.Data from the assay component LTEA_HepaRG_PEG10 was analyzed into 1 endpoint. […]
The source made the active and inactive calls. How the source made its calls: active means hit-call score of the fitted dose curve at least 0.9, where 1 is the maximum; inactive means score below 0.9.
Permitted responses: YES (active), NO (inactive)

compound="N#CC(CCc1ccc(Cl)cc1)(Cn1cncn1)c1ccccc1 (centres undefined)" class=YES
compound="COP(N)(=O)SC (centres undefined)" class=NO
compound=CNC(=S)S class=NO
compound=CC(C)(C)c1ccc(CSc2cnn(C(C)(C)C)c(=O)c2Cl)cc1 class=YES
compound=O=C(Nc1ccccc1)Nc1ccnc(Cl)c1 class=YES
compound="CC(C)C1(C)N=C(c2nc3ccccc3cc2C(=O)O)NC1=O (centres undefined)" class=NO
compound=CC(C)Oc1cc(-n2nc(C(C)(C)C)oc2=O)c(Cl)cc1Cl class=YES
compound=CN(C)C(=S)SSC(=S)N(C)C class=NO
compound="C#CCOS(=O)OC1CCCCC1Oc1ccc(C(C)(C)C)cc1 (centres undefined)" class=YES
compound=COP(=S)(OC)Oc1nc(Cl)c(Cl)cc1Cl class=YES

Data request: Please let me know the test result on file for COC(=O)N(OC)c1ccccc1COc1ccn(-c2ccc(Cl)cc2)n1 .
Data returned: YES

Data request: Outcome? COC(=O)c1ccccc1C(=O)OC
Data returned: NO

Data request: What did the test return for CCOC(=O)C(Cl)Cc1cc(-n2nc(C)n(C(F)F)c2=O)c(F)cc1Cl (centres undefined) ?
Data returned: NO

Data request: For this compound, state the assay outcome: COc1cnc(OC)n2nc(NS(=O)(=O)c3c(OCC(F)F)cccc3C(F)(F)F)nc12
Data returned: NO
